Target: human CRF1 receptors (Homo sapiens, UniProt P34998)
Construct: expressed in transfected cells
Sequence (P34998 24-415): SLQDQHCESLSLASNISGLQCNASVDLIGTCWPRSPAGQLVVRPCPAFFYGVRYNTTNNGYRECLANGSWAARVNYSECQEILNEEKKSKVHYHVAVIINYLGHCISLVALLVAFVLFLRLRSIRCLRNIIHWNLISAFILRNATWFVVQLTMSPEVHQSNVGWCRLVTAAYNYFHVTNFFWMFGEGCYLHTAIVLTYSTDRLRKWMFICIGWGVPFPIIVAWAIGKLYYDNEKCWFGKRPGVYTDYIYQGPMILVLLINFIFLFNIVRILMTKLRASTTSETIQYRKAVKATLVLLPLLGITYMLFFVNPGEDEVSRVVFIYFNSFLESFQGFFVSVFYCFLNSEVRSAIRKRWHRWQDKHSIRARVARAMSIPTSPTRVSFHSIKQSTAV
Experiment: Competition binding of [125I]-Tyr0 sauvagine under equilibrium conditions (secondary assay)
Conditions: [125I]-Tyr0 sauvagine competition, HEK 293 membranes expressing CRF1 receptors; read-out: IC50
pIC50: −log10 of the molar value.
Parameter: pIC50

Below: 3 compounds and their reported pIC50.
{"Compound": "CCCCN(CC)c1nc(C)nc2c1c(C)c(C)n2-c1c(C)cc(C)cc1C [antalarmin, reference compound]", "pIC50": 7.78}
{"Compound": "CCC(CC)Nc1nc(C)nc2c1sc(=NC)n2-c1ccc(OC)cc1C [Compound 23]", "pIC50": 6.95}
{"Compound": "CCCCN(CC)c1nc(C)nc2c1sc(=NC)n2-c1ccc(OC)cc1C [Compound 20]", "pIC50": 8.04}

a. CCCC(CCC)Nc1nc(C)nc2c1sc(=NC)n2-c1ccc(C)cc1C [Compound 19]
b. CCCN(CCC)c1nc(C)nc2c1sc(=NC)n2-c1ccc(Cl)cc1Cl [Compound 2]
c. CCCN(CC1CC1)c1nc(C)nc2c1s/c(=N\C)n2-c1ccc(Cl)cc1Cl [Compound 5]
d. CCCN(CC1CC1)c1nc(C)nc2c1s/c(=N\C)n2-c1ccc(OC)cc1C [Compound 22]
e. CCCCN(CC)c1nc(C)nc2c1sc(=NC)n2-c1ccc(C)cc1C [Compound 14]
Please list these in order of increasing pIC50. Thank you! Submit the labels in the order that the ranking request calls for. e, d, a, c, b

1. CCCN(CCC)c1nc(C)nc2c1sc(=NC)n2-c1ccc(OC)cc1C [Compound 21]
2. CN=c1sc2c(N(CCOC)CCOC)nc(C)nc2n1-c1ccc(C(C)C)cc1Br [Compound 10]
Return label of the item with the larger pIC50. Candidates: 1 , 2 . Write down the label attached to your selection. 1
(1: 7.88, 2: 7.51)
